Every entry's value here was drawn from ChEMBL document CHEMBL1127054.

system.under.test: Monoamine transporters; Norepininephrine & dopamine (Rattus norvegicus) (UniProt P23977+Q9WTR4)
test: Ratio between norepinephrine and Dopamine transporter
Assay type: protein assay
readout: Ratio
Form: value (number only, do not type unit).

Look up Ratio of CN1C2CC[C@@H]1C[C@H](c1ccc(Cl)cc1)C2c1nc(-c2ccccc2)no1 (stereo partly drawn) and report it. 151

Provide Ratio value for the following molecule: CC(C)OC(=O)C1C2CC[C@H](C[C@@H]1c1ccc(Cl)cc1)N2C (stereo partly drawn) 551

Fill in Ratio for record Cc1noc(C2C3CC[C@H](C[C@@H]2c2ccccc2)N3C)n1 (stereo in doubt; 5a) 79

For the molecule CN1C2CC[C@@H]1C[C@H](c1ccc(Cl)cc1)C2c1nc(-c2ccc(Cl)cc2)no1 (stereo partly drawn) , give its reported Ratio. 1000

Tell me its Ratio given CN1C2CCC1C(C(=O)Oc1ccccc1)C(c1ccc(Cl)cc1)C2 (stereo not drawn) as the entry. 1490

For the molecule Cc1ccc([C@H]2C[C@H]3CCC(C2c2nc(-c4ccccc4)no2)N3C)cc1 (stereo partly drawn) , give its reported Ratio. 26

# return recorded Ratio for entry COc1ccc(-c2noc(C3C4CC[C@H](C[C@@H]3c3ccc(Cl)cc3)N4C)n2)cc1 (stereo partly drawn) 461

Annotate the molecule Cc1noc(C2C3CC[C@H](C[C@@H]2c2ccccc2)N3C)n1 (stereo in doubt; 8) with its measured Ratio. 42

---

// values below are IC50; system is UniProtKB P23977
Output spec: scalar in nM, unitless text.

Specify reported IC50 for the molecule shown: CC(C)OC(=O)C1C2CC[C@H](C[C@@H]1c1ccc(Cl)cc1)N2C (stereo partly drawn) 1.41

Please indicate IC50 recorded for Cc1noc(C2C3CC[C@H](C[C@@H]2c2ccccc2)N3C)n1 (stereo in doubt; 7) 204

Give IC50 for the following molecule: Cc1ccc([C@H]2C[C@H]3CCC(C2C(=O)Oc2ccccc2)N3C)cc1 (stereo partly drawn) 3.27

Give IC50 for the following molecule: Cc1noc(C2C3CC[C@H](C[C@@H]2c2ccccc2)N3C)n1 (stereo in doubt; 6) 1030

// Input: CN1C2CC[C@@H]1C[C@H](c1ccc(Cl)cc1)C2c1nc(-c2ccc(Cl)cc2)no1 (stereo partly drawn) . Output its IC50 only. 4.06

Give the reported value of IC50 for this record: CN1C2CC[C@@H]1C[C@H](c1ccc(Cl)cc1)C2c1nc(-c2ccccc2)no1 (stereo partly drawn) 1.62

Give me measured IC50, please, for this molecule: CN1C2CC[C@@H]1C[C@H](c1ccc(Cl)cc1)C2c1nc(-c2ccc(Br)cc2)no1 (stereo partly drawn) 3.44

Indicate the recorded IC50 value for this molecule: Cc1ccc([C@H]2C[C@H]3CCC(C2c2nc(-c4ccccc4)no2)N3C)cc1 (stereo partly drawn) 2.33

---

system.under.test: Monoamine transporters; Norepininephrine & dopamine (Rattus norvegicus) (UniProt P23977+Q9WTR4)
test: Ratio between norepinephrine and Dopamine transporter
Type: protein assay
readout: Ratio
Write the number on its own, no unit after it.

Give reported Ratio value for CC(C)c1noc(C2C3CC[C@H](C[C@@H]2c2ccc(Cl)cc2)N3C)n1 (stereo not given in full) 23

Please supply the value of reported Ratio for the item Cc1ccc([C@H]2C[C@H]3CCC(C2C(=O)Oc2ccccc2)N3C)cc1 (stereo not given in full) 1780

Specify measured Ratio for CN1C2CC[C@@H]1C[C@H](c1ccc(Cl)cc1)C2c1nc(-c2ccc(Br)cc2)no1 (stereo not given in full) . 532

Look up Ratio of Cc1noc(C2C3CC[C@H](C[C@@H]2c2ccccc2)N3C)n1 (stereo in doubt; 6) and report it. 69

Write down Ratio measured for item Cc1noc(C2C3CC[C@H](C[C@@H]2c2ccccc2)N3C)n1 (stereo in doubt; 7) 176
